test system: HepG2 cells; test: LDL uptake in HepG2 cells (human LDL conjugated to DyLight 549); type: cell-based; details: dose 10 µM; HepG2

ENTRY_SMILES: Cc1ccc(NC(=O)c2ccc(CN3CCN(C)CC3)cc2)cc1Nc1nccc(-c2cccnc2)n1
x-fold increase (hepatic LDL uptake) [x-fold]: 5.4
--
ENTRY_SMILES: COc1cc2ncnc(Nc3ccc(Oc4ccccc4)cc3)c2cc1OC
x-fold increase (hepatic LDL uptake) [x-fold]: 5.1
--
ENTRY_SMILES: CS(=O)(=O)CCNCc1ccc(-c2ccc3ncnc(Nc4ccc(OCc5cccc(F)c5)c(Cl)c4)c3c2)o1
x-fold increase (hepatic LDL uptake) [x-fold]: 1.8
--
ENTRY_SMILES: CCOc1cc2ncc(C#N)c(Nc3ccc(OCc4ccccn4)c(Cl)c3)c2cc1NC(=O)/C=C/CN(C)C
x-fold increase (hepatic LDL uptake) [x-fold]: 2.2

* * *

Test system: PCSK9/LDLR complex
Experiment: PCSK9/LDLR protein complementation assay (PCA) in transfected HEK293 cells
Assay type: cell-based, human
Settings: dose 100 μM
Description: In one of the embodiments of the invention, the cell-based assay consists of transfected cDNAs encoding full-length PCSK9 and LDL receptor, each sequence linked in-frame to rationally designed fragments of a variant of green fluorescent protein. […] After 24-48 hours of incubation, drugs (or vehicle controls) were added to the media, and the existence and localization of PCSK9/LDL receptor complexes was quantified on an Opera automated confocal fluorescence microscopy platform (Perkin Elmer). […]
In this section, each of the compounds is paired with its reported % Control (PCSK9/LDLr PCA).

COMPOUND: COc1cc2c(Nc3ccc(Br)cc3F)ncnc2cc1OCC1CCN(C)CC1
% Control (PCSK9/LDLr PCA), %: 39
--
COMPOUND: C=C1CC[C@@H]2[C@](C)(CO)CCC[C@@]2(C)[C@@H]1CCC1=CCOC1=O
% Control (PCSK9/LDLr PCA), %: 40
--
COMPOUND: COc1cc2ncnc(Nc3ccc(F)c(Cl)c3)c2cc1OCCCN1CCOCC1
% Control (PCSK9/LDLr PCA), %: 53
--
COMPOUND: CN[C@H]1CC[C@@H](c2ccc(Cl)c(Cl)c2)c2ccccc21
% Control (PCSK9/LDLr PCA), %: 46
--
COMPOUND: C=C1CC[C@@H]2[C@](C)(CO)[C@H](O)CC[C@@]2(C)[C@@H]1C/C=C1/C(=O)OC[C@H]1O [Andrographolide]
% Control (PCSK9/LDLr PCA), %: 43
--
COMPOUND: Cc1c(OCC(F)(F)F)ccnc1C[S+]([O-])c1nc2ccccc2[nH]1 (stereo not shown)
% Control (PCSK9/LDLr PCA), %: 53
--
COMPOUND: CN(C)CCC=C1c2ccccc2CCc2ccccc21
% Control (PCSK9/LDLr PCA), %: 48

* * *

In this section, each of the compounds is paired with its reported x-fold increase (LDL uptake in Hepg2 cells).
test system: HepG2 cells; test: LDL uptake in HepG2 cells (human LDL conjugated to DyLight 549); assay type: cell-based; details: dose 1 μM
PARAMETER_MEASURED: x-fold increase (LDL uptake in Hepg2 cells) (x-fold)

ENTRY_SMILES: CCc1cc(-c2oncc2-c2ccc(OC)cc2)c(O)cc1OC
READOUT_VALUE: 1.3
--
ENTRY_SMILES: COc1cc2c(Nc3ccc(Br)cc3F)ncnc2cc1OCC1CCN(C)CC1
READOUT_VALUE: 1.5
--
ENTRY_SMILES: Oc1ccc(-c2nc(-c3ccc(F)cc3)c(-c3ccncc3)[nH]2)cc1
READOUT_VALUE: 2.7
--
ENTRY_SMILES: CCN(CC)CCCCN1c2ccccc2Oc2ccc(Cl)cc21.Cl
READOUT_VALUE: 1.4

* * *

System: HepG2 cells
Assay: LDL uptake in HepG2 cells (human LDL conjugated to DyLight 549)
Assay type: cell-based
Details: dose 3 μM
From the text: The assay uses human LDL conjugated to DyLight™ 549 as a fluorescent probe for detection of LDL uptake into HepG2 cells. We assessED whether compounds that inhibit the PCSK9/LDLr assay would have activity on LDL uptake and metabolism in a relevant cell type. PCSK9 is thought to be a negative regulator of LDLr. […] Quantitation of the increased LDL uptake of these and other kinase inhibitors targeting Akt, mTOR, p38, GSK3 and VEGF is shown in Table 4.
In this section, each of the compounds is paired with its reported x-fold increase (LDL uptake in Hepg2 cells).
PARAMETER_MEASURED: x-fold increase (LDL uptake in Hepg2 cells)

COMPOUND: COc1cc2ncnc(Nc3ccc(Oc4ccccc4)cc3)c2cc1OC [Src Kinase Inhibitor I]
MEASURED_TARGET: HepG2 cells
READOUT_VALUE: 2.3 x-fold
//
COMPOUND: CCN(CC)CCCCN1c2ccccc2Oc2ccc(Cl)cc21.Cl [Akt Inhibitor X]
MEASURED_TARGET: HepG2 cells
READOUT_VALUE: 1.7 x-fold
//
COMPOUND: COc1cc2c(Nc3ccc(Br)cc3F)ncnc2cc1OCC1CCN(C)CC1 [Vandetanib]
MEASURED_TARGET: HepG2 cells
READOUT_VALUE: 2.0 x-fold
//
COMPOUND: C[S+]([O-])c1ccc(-c2nc(-c3ccc(F)cc3)c(-c3ccncc3)[nH]2)cc1 (stereo not shown) [SB 203580]
MEASURED_TARGET: HepG2 cells
READOUT_VALUE: 3.0 x-fold
//
COMPOUND: CCc1cc(-c2oncc2-c2ccc(OC)cc2)c(O)cc1OC [KRIBB3]
MEASURED_TARGET: HepG2 cells
READOUT_VALUE: 1.6 x-fold
//
COMPOUND: O=c1cc(N2CCNCC2)oc2c(-c3ccccc3)cccc12 [LY 303511]
MEASURED_TARGET: HepG2 cells
READOUT_VALUE: 1.4 x-fold
//
COMPOUND: Cc1ccc(NC(=O)c2ccc(CN3CCN(C)CC3)cc2)cc1Nc1nccc(-c2cccnc2)n1 [Imatinib]
MEASURED_TARGET: HepG2 cells
READOUT_VALUE: 2.4 x-fold

All values here come from patent US20100081632A1.
